Here, compounds appear alongside pKi reported for Orexin receptor type 2 (Homo sapiens, UniProt O43614) in the literature.
pKi: −log10 of the molar value.
# label = T if pKi >= 9 else F

Cc1ccc2nc(SCC(=O)N3CCC[C@H]3C(=O)Nc3ccccc3-n3cccc3)n(C)c2c1; T
Cc1ccc(-n2nccn2)c(C(=O)N2CCCN(c3ccc4ccccc4c3)CC2)c1; F
COc1ccc(CNC(=O)c2cc(-c3cncc(C)c3)ncc2N2CCOCC2)nc1OC; F

Now for another entry.
Problem: Dear colleague, could you confirm whether O=C(c1ccccc1-n1nccn1)N1CCC(F)(F)C(Oc2cc(C(F)(F)F)ccn2)C1 (stereo not drawn) has pKi at or above 9?
Result: F
